MEASUREMENT TARGET: T1, cynomolgus monkey SLITRK6 extracellular domain linked to his tag (cynomolgus monkey, UniProt G7PVK4 27-608)
T1 construct: extracellular domain; also called cynoSLITRK6; Cyno SLITRK6; not shown: his tag
TEST METHOD NOTES: BLI; antigen-his on anti-his tips, antibody or ADC as analyte; 1:1 fit
ASSAY METRIC: Kd (nM)
API: value field is a number in nM; no unit string.

BINDER: AGS15E (antibody, V domains shown, drug conjugate; drug-linker and positions not given, also called ADC of Sirtratumab) VH: QVQLVESGGGVVQPGRSLRLSCAASGFTFSSYGMHWVRQAPGKGLEWVAVIWYDGSNQYYADSVKGRFTISRDNSKNTLFLQMHSLRAEDTAVYYCARGLTSGRYGMDWGQGTTVTVSS VL: DIVMTQSPLSLPVTPGEPASISCRSSQSLLLSHGFNYLDWYLQKPGQSPQLLIYLGSSRASGVPDRFSGSGSGTDFTLKISRVEAEDVGLYYCMQPLQIPWTFGQGTKVEIK
Kd [nM]: 0.87
--
BINDER: Sirtratumab (antibody, V domains shown, Prior-art benchmark antibody; also called Sirtratuzumab) VH: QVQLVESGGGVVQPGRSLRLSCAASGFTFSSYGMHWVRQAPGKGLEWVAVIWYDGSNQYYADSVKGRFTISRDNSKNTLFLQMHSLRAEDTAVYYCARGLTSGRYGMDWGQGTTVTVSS VL: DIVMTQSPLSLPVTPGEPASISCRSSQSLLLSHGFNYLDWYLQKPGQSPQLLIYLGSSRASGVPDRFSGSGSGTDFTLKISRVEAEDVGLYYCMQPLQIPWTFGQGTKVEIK
Kd [nM]: 1.2
--
BINDER: hu1H2-03 with a LALA mutation (hu1H2-03-LALA) (antibody, V domains shown) VH: EVQLVESGGGLVQPGGSLRLSCAASGFTFSDYGLHWVRQAPGKGLEWVSYISSGSSTVYFADTLKGRFTISRDNAKNSLYLQMNSLRAEDTAVYYCTRGTWYFDVWGRGTLVTVSS VL: DIQMTQSPSSLSASVGDRVTITCRTSENIHSYLAWYQQKPGKSPQLLVYNAKTLADGVPSRFSGSGSGTDYTLTISSLQPEDFGTFYCQHFWTTSRTFGGGTKVEIK
Kd [nM]: 0.25

Next binder, please.
Kd in this record for hu1H2-03-LD038 (antibody, V domains shown, drug-linker LD038 conjugated to the antibody; positions not given, also called hu1H2-03-LALA-LD038; hu1H2-03-LD038 (8)) VH: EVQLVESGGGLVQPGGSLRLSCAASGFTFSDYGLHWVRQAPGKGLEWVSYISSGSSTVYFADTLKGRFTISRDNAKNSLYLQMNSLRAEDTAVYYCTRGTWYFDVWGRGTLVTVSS VL: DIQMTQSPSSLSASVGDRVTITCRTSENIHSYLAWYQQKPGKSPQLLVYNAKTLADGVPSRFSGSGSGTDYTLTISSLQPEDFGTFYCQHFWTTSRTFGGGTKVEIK : 0.21
